Assignment: determine reported IC50 for the given compounds.
# tested target: CDK5/p35 (Homo sapiens, UniProt Q00535)
# Construct: purchased ProQinase GmbH
# Sequence (Q00535 whole entry): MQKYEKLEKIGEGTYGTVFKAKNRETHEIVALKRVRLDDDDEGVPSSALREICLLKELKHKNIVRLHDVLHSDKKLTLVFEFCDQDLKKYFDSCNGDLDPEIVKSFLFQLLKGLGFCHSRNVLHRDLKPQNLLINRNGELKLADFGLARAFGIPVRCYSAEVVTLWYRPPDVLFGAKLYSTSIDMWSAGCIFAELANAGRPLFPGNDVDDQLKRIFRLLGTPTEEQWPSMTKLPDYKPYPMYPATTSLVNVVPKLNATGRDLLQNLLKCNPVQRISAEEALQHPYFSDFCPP
# Sequence (Q15078 whole entry partner): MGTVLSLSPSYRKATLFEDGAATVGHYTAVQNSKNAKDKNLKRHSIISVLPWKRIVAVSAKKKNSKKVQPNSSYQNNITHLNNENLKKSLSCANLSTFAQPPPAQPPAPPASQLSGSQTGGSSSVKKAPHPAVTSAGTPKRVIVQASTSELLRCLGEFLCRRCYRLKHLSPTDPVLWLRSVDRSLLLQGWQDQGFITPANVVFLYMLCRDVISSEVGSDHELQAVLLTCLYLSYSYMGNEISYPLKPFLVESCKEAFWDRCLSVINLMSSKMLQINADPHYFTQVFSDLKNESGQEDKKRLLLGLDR
# experiment summary: CDK5/p35 kinase inhibition (33P-ATP, histone H1)
# Assay type: biochemical
# stated conditions: 0.15 μM ATP
State just the number; it will be interpreted in µM.

Hi! What's the reported IC50 for CC(C)c1n[nH]c2c(NCc3ccc(-c4ccccn4)cc3)ncnc12 [Compound 2] on CDK5/p35 (Homo sapiens, UniProt Q00535)?
0.183

Lab note: need IC50 for CC(C)c1[nH]nc2c(NCc3ccc(-c4ccccn4)cc3)nc(NCCCO)nc12 [Compound 29] on CDK5/p35 (Homo sapiens, UniProt Q00535), anyone have it?
0.0149

Provide value of IC50 for this record tested with CDK5/p35 (Homo sapiens, UniProt Q00535): CC(C)c1[nH]nc2c(NCc3ccc(-c4ccccn4)cc3)nc(NCCN3CCC3)nc12 [Compound 54]
0.204

Observed IC50 on CDK5/p35 (Homo sapiens, UniProt Q00535) for CC(C)c1[nH]nc2c(NCc3ccc(-c4ccccn4)cc3)nc(N3CCNCC3)nc12 [Compound 13] , please.
0.119

* * *

# Test system: HL60 (human promyelocytic leukaemia)
# experiment summary: MTT cytotoxicity assay, leukemic cell line HL60
# Type: cell-based
# stated conditions: three days
readout name: IC50 (µM)
// return numeric value only (unit: µM, not printed)

IC50 lookup needed for CC(C)c1n[nH]c2c(NCc3ccc(-c4ccccn4)cc3)nc(N[C@H](C)CCO)nc12 , thanks.
0.24

Returns the measured IC50 for the input compound. Input: CC(C)c1n[nH]c2c(NCc3ccc(-c4ccccn4)cc3)nc(NCC(C)N3CC3)nc12 (stereo not shown)
0.32

Name the recorded IC50 for CC(C)c1n[nH]c2c(NCc3ccc(-c4ccccn4)cc3)nc(NCCCN)nc12 .
0.56

Item under review: CCN(CC)CCNc1nc(NCc2ccc(-c3ccccn3)cc2)c2[nH]nc(C(C)C)c2n1 . Reported IC50?
0.14

* * *

# Tested on: K562 (human chronic myelogenous leukaemia)
# experiment summary: MTT cytotoxicity assay, leukemic cell line K562
# Assay type: cell-based
# stated conditions: three days
For each of the compounds below, state its IC50.
Please give a number only; it is taken to be in µM.

GET /values?readout=IC50&item= CC(C)c1n[nH]c2c(NCc3ccc(-c4ccccn4)cc3)nc(NCCCN)nc12
0.47

Value lookup for IC50; key = CC(C)c1n[nH]c2c(NCc3ccc(-c4ccccn4)cc3)nc(N[C@H](C)CCO)nc12
0.39

Using the record for CCN(CC)CCNc1nc(NCc2ccc(-c3ccccn3)cc2)c2[nH]nc(C(C)C)c2n1 , report its IC50.
0.18

Record request: IC50 value, item CC(C)c1n[nH]c2c(NCc3ccc(-c4ccccn4)cc3)nc(NCC(C)N3CC3)nc12 (stereo not shown)
0.44

* * *

# Tested on: MV4;11 (acute myelocytic leukemia)
# experiment summary: MTT cytotoxicity assay, leukemic cell line MV4;11
# Type: cell-based
# stated conditions: three days
Hi there, I'd appreciate the recorded IC50 for every entry that follows.
Report the figure in µM without appending any unit label.

Data request, read-out IC50, for CCN(CC)CCNc1nc(NCc2ccc(-c3ccccn3)cc2)c2[nH]nc(C(C)C)c2n1 [Compound 50]
0.17

Given the entry CC(C)c1n[nH]c2c(NCc3ccc(-c4ccccn4)cc3)nc(NCC(C)N3CC3)nc12 (stereo not shown) [Compound 57] , report its measured IC50.
0.53

Quick one: IC50 for CC(C)c1n[nH]c2c(NCc3ccc(-c4ccccn4)cc3)nc(NCCCN)nc12 [Compound 41] ?
0.35

# lookup: IC50 of CC(C)c1n[nH]c2c(NCc3ccc(-c4ccccn4)cc3)nc(N[C@H](C)CCO)nc12 [Compound 31]
0.31

* * *

# tested target: CDK5/p35 (Homo sapiens, UniProt Q00535)
# Construct: purchased ProQinase GmbH
# experiment summary: CDK5/p35 kinase inhibition (33P-ATP, histone H1)
# Assay type: biochemical
# stated conditions: 0.15 μM ATP
Returns: string. Value is t if measured IC50 is below 0.09 µM, and f if it is greater than or equal to it.

Lab log: compare recorded IC50 with 0.09 µM; is it strictly lower for CC(C)c1[nH]nc2c(NCc3ccc(-c4ccccn4)cc3)nc(N3CCCCC3)nc12 ?
f

Hello, is IC50 of the following compound strictly smaller than 0.09 µM? CC(C)c1[nH]nc2c(NCc3ccc(-c4ccccn4)cc3)nc(NCCN3CCCC3)nc12
f

Is IC50 strictly under 0.09 µM for the entry CC(C)c1[nH]nc2c(NCc3ccc(-c4ccccn4)cc3)nc(NC3CCCCC3N)nc12 (centres unmarked) ?
t

API: query returns whether the compound falls strictly under 0.09 µM in IC50. Query: COc1ccc(CNc2nc(NCc3ccc(-c4ccccn4)cc3)c3n[nH]c(C(C)C)c3n2)cc1
f

A record lists CC(C)c1[nH]nc2c(NCc3ccc(-c4ccccn4)cc3)nc(NCCN(C)C)nc12 . Is its IC50 below 0.09 µM?
f

Consider CSc1nc(NCc2ccc(-c3ccccn3)cc2)c2[nH]nc(C(C)C)c2n1 . Does its IC50 lie strictly below 0.09 µM?
f

Bench note: check whether CC(C)c1[nH]nc2c(NCc3ccc(-c4ccccn4)cc3)nc(N3CCOCC3)nc12 shows IC50 below 0.09 µM
t

The reported measurements were obtained from patent US9957273B2.
